The reported numbers originate from paper PMC11514314.

Exercise: for every item that follows, state its recorded IC50.
Test system: NS-1 (ATCC TIB-18) mouse myeloma cells
METHOD_SUMMARY: Cytotoxicity resazurin assay, NS-1 cells
Type: cell-based
ASSAY_SETUP: NS1; mouse myeloma NS-1 ATCC TIB-18, 96 h; read-out: IC50 NS-1

// input: 3 compounds below; output: IC50 for each
1. CCCCCCCCCCCCCc1cc(O[C@@H]2O[C@H](CO)[C@H](O)[C@H](O)[C@H]2O)cc(O)c1C(=O)O [3d, Ariestatin D]
2. Cc1cc(O)cc(O)c1C(=O)O [compound 5, orsellinic acid]
3. CCCCCCCCCCCCCc1cc(O)cc(O)c1C(=O)Oc1cc(C)c(C(=O)O)c(O)c1 [3b, Ariestatin B]

Given back:
> 50 µg/mL
> 100 µg/mL
> 50 µg/mL
